Molecular target: T1, CRBN, Q96SW2;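 note: pooled lentiviral library of zinc finger degron-EGFP fusions in mCherry-positive Jurkat cells, FACS-sorted after compound exposure, with degron abundance counted by next-generation sequencing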
T1 chain: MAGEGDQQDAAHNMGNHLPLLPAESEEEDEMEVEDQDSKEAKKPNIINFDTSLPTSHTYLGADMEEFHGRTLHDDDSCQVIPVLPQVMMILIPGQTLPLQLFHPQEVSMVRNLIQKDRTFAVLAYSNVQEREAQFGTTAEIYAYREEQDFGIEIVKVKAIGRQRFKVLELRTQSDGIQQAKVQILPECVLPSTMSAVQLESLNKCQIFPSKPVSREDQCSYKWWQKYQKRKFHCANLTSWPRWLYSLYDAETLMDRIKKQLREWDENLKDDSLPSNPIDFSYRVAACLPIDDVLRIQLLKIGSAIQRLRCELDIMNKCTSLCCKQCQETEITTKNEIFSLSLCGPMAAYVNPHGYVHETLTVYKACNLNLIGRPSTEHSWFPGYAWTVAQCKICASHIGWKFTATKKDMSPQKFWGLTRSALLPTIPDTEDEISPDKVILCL
Assay: log2 fold change of degron read counts, EGFP-low vs EGFP+ sorted cells (limma voom), compound-induced degradation; higher = more compound-induced degradation of the degron-EGFP fusion; degrons are variants of IKZF1/3 zinc finger 2; compound dose not given here
Conditions: Jurkat; 18 h; compound: compound 19 (5-tert-butyl-thalidomide)
Whole data set: some 8,300 sequences, median “log2 fold change of degron read counts, EGFP-low vs EGFP+ sorted cells (limma voom), compound-induced degradation” near -1.1, cut for the highest 2% near 3.2. Only a selection was taken, and the highest values are over-represented in it overall.
property-measured: log2 fold change of degron read counts
Just the number, please.

Prompt line: Looking for the measured log2 fold change of degron read counts of FICEICGAKFTQKGNLLRHIKL [46F_47I_49E_50I_52G_53A_54K_55F_67L_, Q9UKT9] , can you help?
Response line: 0.419

Prompt line: Looking for the measured log2 fold change of degron read counts of FSCEICGAEFTQKGNLLRHIKL [46F_47S_49E_50I_52G_53A_54E_55F_67L_, Q9UKT9] , can you help?
Response line: 1.69

Prompt line: Looking for the measured log2 fold change of degron read counts of FFCSVCGHPFTQKGNLLRHIKL [46F_47F_49S_50V_52G_53H_54P_55F_67L_, Q9UKT9] , can you help?
Response line: -0.493

Prompt line: Looking for the measured log2 fold change of degron read counts of FGCEICGAKFTQKGNLLRHIKL [46F_47G_49E_50I_52G_53A_54K_55F_67L_, Q9UKT9] , can you help?
Response line: 3.49

Prompt line: Looking for the measured log2 fold change of degron read counts of FVCNQCGACFTQKGNLLRHIKL [46F_47V_49N_50Q_52G_53A_54C_55F_67L_, Q9UKT9] , can you help?
Response line: -2.19

Prompt line: Looking for the measured log2 fold change of degron read counts of FVCEICGAKFTQKGNLLRHIKL [46F_47V_49E_50I_52G_53A_54K_55F_67L_, Q9UKT9] , can you help?
Response line: 1.42

Prompt line: Looking for the measured log2 fold change of degron read counts of FLCPICGRFFTQKGNLLRHIKL [46F_47L_49P_50I_52G_53R_54F_55F_67L_, Q9UKT9] , can you help?
Response line: -1.24
